// data source = patent US7868005B2

Target: human CXCR3 (N-delta 4) (Homo sapiens, UniProt P49682)
Construct: CD8 leader (N); Flag; expressed in transfected cells; membranes prepared
Assay: Human CXCR3 (N-delta 4) Scintillation Proximity Assay (SPA), [125I] IP-10 binding to Ba/F3-hCXCR3 membranes
Conditions: IC50 rating, Table 1; read-out: IC50
pIC50: −log10 of the molar value.
Listing of recorded pIC50 by entry.

Answered cases to consult:
* CC[C@H]1CN(c2nc(N)c(C(=O)NCCNS(=O)(=O)c3cn(C)cn3)nc2Cl)CCN1C1CCN(Cc2ccc(C#N)cc2)CC1 | < 7.00
* CC[C@H]1CN(c2ncc(C(N)=O)nc2C)[C@H](C)CN1C1CCN([C@@H](CO)c2ccc(Cl)cc2)CC1 | > 7.60

Incoming: Under human CXCR3 (N-delta 4) (Homo sapiens, UniProt P49682): pIC50 value of CC[C@H]1CN(c2nc(N)c(C(=O)NC3CCOC3=O)nc2Cl)CCN1C1CCN(Cc2ccc(Cl)cc2)CC1 (stereo partly shown) [compound 277] ?
Outgoing: > 7.60

Incoming: Okay, and `CC[C@H]1CN(c2nc(N)c(C(=O)NCCO)nc2Cl)CCN1C1CCN(Cc2cc(F)c(F)c(F)c2O)CC1` ?
Outgoing: 7.00 to 7.60

====

Each record here notes measured IC50.
Target: human CXCR3 (N-delta 4) (Homo sapiens)
Construct: CD8 leader (N); Flag; expressed in transfected cells; membranes prepared
Assay: Human CXCR3 (N-delta 4) Scintillation Proximity Assay (SPA), [125I] IP-10 binding to Ba/F3-hCXCR3 membranes
Details: IC50 rating, Table 1; read-out: IC50
Text: The inventive compounds can readily be evaluated to determine activity at the CXCR3 receptors by known methods, such as, for example, development of a human CXCR3 (N-delta 4) Binding Assay. Cloning and Expression of Human CXCR3 (N-delta 4): The DNA encoding human CXCR3 was cloned by PCR using human genomic DNA (Promega, Madison, Wis.) as a template. […]

Some compounds with known IC50 results, for comparison:
• CC[C@H]1CN(c2nc(N)c(C(N)=O)nc2Cl)CCN1C1CCN(Cc2ccc(Cl)cc2C(O)C(=O)N(C)C)CC1 (some centres unmarked) [compound 18] = < 25 nM
• CC[C@H]1CN(c2ncc(C(N)=O)nc2C)CCN1C1CCN(Cc2ccc(F)cc2)CC1 = < 25 nM
• CC[C@H]1CN(c2nc(N)c(C(=O)NCCO)nc2Cl)CCN1C1CCN(Cc2ccc(Cl)cc2)CC1 = < 25 nM
• CC[C@H]1CN(c2nc(N)c(C(N)=O)nc2Cl)CCN1[C@H]1CCN(Cc2ccc(Cl)cc2)C[C@@H]1O = > 100 nM
• CC[C@H]1CN(c2nc(N)c(C(=O)NCCNC(=O)OC(C)(C)C)nc2Cl)CCN1C1CCN(Cc2ccc(Cl)cc2C#N)CC1 = > 100 nM

Incoming: Recorded IC50 of `CC[C@H]1CN(c2nc(N)c(C(N)=O)nc2Cl)CCN1C1CCN(Cc2ccc(Cl)cc2C(=O)O)CC1` , please.
Outgoing: 25 to 100 nM

Incoming: Another compound: `CC[C@H]1CN(c2nc(N)c(C(=O)NCCO)nc2Cl)CCN1C1CCN(Cc2ccc(F)c(F)c2N2CCC(=O)C2)CC1`
Outgoing: 25 to 100 nM

Incoming: Same read-out for `CC[C@H]1CN(c2ncc(C(=O)NC3CC3)nc2C)CCN1C1CCN(C(=O)c2ccc(F)c(F)c2)CC1` ?
Outgoing: < 25 nM

Incoming: Quick one: `CC[C@H]1CN(c2nc(N)c(C(N)=O)nc2Cl)CCN1C1CCN(Cc2ccc(Cl)cc2C(=O)OC)CC1`
Outgoing: 25 to 100 nM

Incoming: What would you report for `CC[C@H]1CN(c2nc(N)c(C(=O)NCCO)nc2Cl)CCN1C1CCN(Cc2ccc(Cl)cc2OCCNC(=O)OC(C)(C)C)CC1` ?
Outgoing: < 25 nM

Incoming: # repeat for `CC[C@H]1CN(c2nc(N)c(C(=O)NCCO)nc2Cl)CCN1C1CCN(C(=O)c2ccc(F)c(F)c2NCc2ccccc2)CC1`
Outgoing: > 100 nM

Incoming: Moving on to the next compound: `CC[C@H]1CN(c2ncc(C(=O)NC3CC3)nc2C)CCN1C1CCN([C@@H](CO)c2ccc(Cl)cc2)CC1`
Outgoing: < 25 nM

Incoming: Try `CC[C@H]1CN(c2nc(N)c(C(=O)NCCO)nc2Cl)CCN1C1CCN(Cc2ccc(Cl)cc2OCCNS(N)(=O)=O)CC1` next.
Outgoing: < 25 nM

Incoming: Then what about the compound `CC[C@H]1CN(c2ncc(C(N)=O)nc2Cl)CCN1C1CCN([C@@H](C(=O)OC)c2ccc(Cl)cc2)CC1` ?
Outgoing: < 25 nM

====

Target: human CXCR3 (N-delta 4) (Homo sapiens)
Construct: CD8 leader (N); Flag; expressed in transfected cells; membranes prepared
Assay: Human CXCR3 (N-delta 4) Scintillation Proximity Assay (SPA), [125I] IP-10 binding to Ba/F3-hCXCR3 membranes
Conditions: IC50 rating, Table 1; read-out: IC50
pIC50: −log10 of the molar value.
Some molecules, each annotated with its measured pIC50.

* CC[C@H]1CN(c2nc(N)c(C(=O)NC3CC3)nc2Cl)CCN1C1CCN(Cc2ccc(Cl)cc2C#N)CC1 | > 7.60
* CC[C@H]1CN(c2nc(N)c(C(=O)NC)nc2Cl)CCN1C1CCN(C(=O)C2CCc3ccccc3C2)CC1 (stereo partly drawn) | > 7.60
* CC[C@H]1CN(c2nc(N)c(C(=O)NC)nc2Cl)CCN1C1CCN(C(=O)c2ccc(Br)c(F)c2)CC1 | > 7.60
* CC[C@H]1CN(c2nc(N)c(C(=O)NC3CC3)nc2Cl)CCN1C1CCN(Cc2ccc(C#N)cc2OCCOC)CC1 | > 7.60
* CC[C@H]1CN(c2cnc(C(N)=O)cn2)CCN1C1CCN([C@@H](CO)c2ccc(Cl)cc2)CC1 | > 7.60

Incoming: Fill in: pIC50 of `CC[C@H]1CN(c2nc(N)c(C(=O)NCCNS(N)(=O)=O)nc2Cl)CCN1C1CCN([C@H](CO)c2ccc(Cl)cc2)CC1` is ___
Outgoing: < 7.00

Incoming: Also, `CC[C@H]1CN(c2nc(N)c(C(N)=O)nc2Cl)CCN1C1CCN([C@@H](C(=O)OC)c2ccc(Cl)cc2)CC1` please.
Outgoing: < 7.00

Incoming: Please do the same for `CC[C@H]1CN(c2nc(N)c(C(=O)NCCO)nc2Cl)CCN1C1CCN(Cc2ccc(Cl)cc2C(=O)N2CCOCC2)CC1` as well.
Outgoing: < 7.00

Incoming: // same read-out, input: `CC[C@H]1CN(c2nc(N)c(C(N)=O)nc2Cl)CCN1C1CCN(Cc2ccc(Cl)cc2CCNC(=O)OC(C)(C)C)CC1`
Outgoing: > 7.60

Incoming: Subsequent entry: `CC[C@H]1CN(c2nc(N)c(C(=O)NCCO)nc2Cl)CCN1C1CCN(Cc2ccc(OC)cc2)CC1`
Outgoing: > 7.60

====

Biological target: human CXCR3 (N-delta 4) (Homo sapiens)
Construct: CD8 leader (N); Flag; expressed in transfected cells; membranes prepared
Assay: Human CXCR3 (N-delta 4) Scintillation Proximity Assay (SPA), [125I] IP-10 binding to Ba/F3-hCXCR3 membranes
Conditions: IC50 rating, Table 1; read-out: IC50
pIC50: −log10 of the molar value.
reported-property: pIC50

Recorded pIC50, per entry:
• CC[C@H]1CN(c2nc(N)c(C(=O)NCCO)nc2Cl)CCN1C1CCN(Cc2ccc(F)c(OS(C)(=O)=O)c2)CC1 = > 7.60
• CC[C@H]1CN(c2nc(N)c(C(=O)NCCO)nc2Cl)CCN1C1CCN(Cc2ccc(C#N)cc2O)CC1 = 7.00 to 7.60
• CNC(=O)c1nc(Cl)c(N2CCN(C3CCN(Cc4ccc(Cl)cc4)CC3)[C@@H](C)C2)nc1N = > 7.60
• CC[C@H]1CN(c2nc(N)c(C(N)=O)nc2Cl)CCN1C1CCN(Cc2ccc(Cl)cc2CC(=O)N(C)C)CC1 = < 7.00
• CC[C@H]1CN(c2nc(N)c(C(N)=O)nc2Cl)CCN1C1CCN(Cc2ccc(Cl)cc2C2OC(=O)N(C)C2=O)CC1 (stereo partly shown) = < 7.00

Incoming: Need pIC50 of `CC[C@H]1CN(c2nc(N)c(C(N)=O)nc2Cl)CCN1C1CCN([C@@H](C(N)=O)c2ccc(Cl)cc2)CC1` , thanks.
Outgoing: < 7.00

Incoming: Can you check `CC[C@H]1CN(c2nc(N)c(C(=O)NCCO)nc2Cl)CCN1C1CCN(C(=O)c2cc(F)c(F)cc2N)CC1` next?
Outgoing: 7.00 to 7.60

====

Biological target: human CXCR3 (N-delta 4) (Homo sapiens, UniProt P49682)
Construct: CD8 leader (N); Flag; expressed in transfected cells; membranes prepared
Sequence (P49682 5-368 limits assumed): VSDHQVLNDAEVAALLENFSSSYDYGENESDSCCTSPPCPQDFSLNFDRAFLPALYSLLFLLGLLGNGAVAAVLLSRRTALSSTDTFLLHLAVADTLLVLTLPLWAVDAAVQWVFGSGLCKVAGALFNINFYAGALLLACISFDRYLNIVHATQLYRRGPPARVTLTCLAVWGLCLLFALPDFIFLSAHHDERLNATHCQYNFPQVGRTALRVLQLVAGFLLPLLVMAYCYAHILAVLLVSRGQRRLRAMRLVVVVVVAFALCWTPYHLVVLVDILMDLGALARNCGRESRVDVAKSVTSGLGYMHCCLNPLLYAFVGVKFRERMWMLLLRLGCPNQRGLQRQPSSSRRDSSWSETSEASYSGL
Test: Human CXCR3 (N-delta 4) Scintillation Proximity Assay (SPA), [125I] IP-10 binding to Ba/F3-hCXCR3 membranes
Details: IC50 rating, Table 1; read-out: IC50
pIC50: −log10 of the molar value.
reported-property: pIC50

A selection of reference data follows.
- CC[C@H]1CN(c2nc(N)c(C(=O)OC)nc2Cl)CCN1C1(C)CCN(Cc2ccc(Cl)cc2)CC1 [compound 310]: < 7.00
- CC[C@H]1CN(c2nc(N)c(C(=O)NCCO)nc2Cl)CCN1C1CCN([C@H](C(=O)OC)c2ccc(Cl)cc2)CC1 [compound 192]: < 7.00
- CC[C@H]1CN(c2nc(N)c(C(=O)NC)nc2Cl)CCN1C1CCN(C(=O)c2c(C)cc(OCc3ccccc3)cc2C)CC1 [compound 367]: < 7.00
- CC[C@H]1CN(c2nc(N)c(C(=O)NCCO)nc2Cl)CCN1C1CCN(Cc2ccc(Cl)c(OCCS(C)(=O)=O)c2)CC1 [compound 410]: > 7.60
- CC[C@H]1CN(c2nc(N)c(C(=O)NCCO)nc2Cl)CCN1C1CCN(Cc2ccc(C#N)cc2OCC(=O)NCCO)CC1 [compound 146]: > 7.60
- CC[C@H]1CN(c2nc(N)c(C(=O)NCCO)nc2Cl)CCN1C1CCN(C(CCOC)c2ccc(Cl)cc2)CC1 (stereo partly drawn) [compound 187]: 7.00 to 7.60
- CC[C@H]1CN(c2nc(N)c(C(=O)NCCO)nc2Cl)CCN1C1CCN([C@H](C(=O)OC)c2ccc(F)c(F)c2)CC1 [compound 198]: < 7.00
- CC[C@H]1CN(c2ncc(C(N)=O)nc2Cl)CCN1C1CCN([C@@H](CO)c2ccc(Cl)cc2)CC1 [compound 457]: > 7.60
- CC[C@H]1CN(c2nc(N)c(C(=O)NCCO)nc2Cl)CCN1C1CCN(Cc2cc(F)c(Cl)cc2OCCOC)CC1 [compound 143]: > 7.60
- CC[C@H]1CN(c2nc(N)c(C(=O)NCCS(C)(=O)=O)nc2Cl)CCN1C1CCN(Cc2ccc(Cl)cc2)CC1 [compound 101]: 7.00 to 7.60

Incoming: Give recorded pIC50 with human CXCR3 (N-delta 4) (Homo sapiens, UniProt P49682) for the following molecule: CC[C@H]1CN(c2ncc(C(N)=O)nc2Cl)CCN1C1CCN(C(=O)c2ccc(Cl)c(OCCS(C)(=O)=O)c2)CC1 [compound 409]
Outgoing: > 7.60

Incoming: Can you handle CC[C@H]1CN(c2nc(N)c(C(=O)NC)nc2Cl)CCN1C1CCN(C(=N)c2ccc(Cl)cc2)CC1 [compound 371] next?
Outgoing: > 7.60

Incoming: Same read-out for CC[C@H]1CN(c2ncc(C(N)=O)nc2Br)CCN1C1CCN(C(=O)c2ccc(Cl)cc2)CC1 [compound 387] ?
Outgoing: > 7.60

Incoming: One more molecule: CC[C@H]1CN(c2nc(N)c(C(=O)NCCOC)nc2Cl)CCN1C1CCN(Cc2ccc(Cl)cc2)CC1 [compound 268]
Outgoing: > 7.60

Incoming: Please give the result for CC[C@H]1CN(c2ncc(C(=O)NC3CC3)nc2C)CCN1C1CCN(Cc2ccc(C)cc2)CC1 [compound 439] too.
Outgoing: > 7.60

Incoming: Similarly, CC[C@H]1CN(c2nc(N)c(C(=O)NCCO)nc2Cl)CCN1C1CCN(Cc2ccc(Cl)cc2C(=O)NCCO)CC1 [compound 176] ?
Outgoing: > 7.60

Incoming: How about CC[C@H]1CN(c2nc(N)c(C(=O)NNC(C)=O)nc2Cl)CCN1C1CCN(C(=O)c2ccc(Cl)cc2)CC1 [compound 373] ?
Outgoing: < 7.00
